Assay overview: Terminal half life in human at 1000 […], po measured on day 10
Type: ADME, organism-based
Design: route oral
Experimental parameters: in vivo, read-out: beta t1/2 (converted)
Reported metric: half-life (min)
State the answer as a number, implicitly in min.

Give its half-life value. Item: COc1c(N2C[C@@H](C)C[C@H](N)C2)ccc2c(=O)c(C(=O)O)cn(C3CC3)c12 [NEMONOXACIN]
1170

---

Assay overview: Oral clearance in human at 750 […] measured on day 1
Assay type: ADME, organism-based
Experimental parameters: in vivo
Reported metric: CL/F (mL/min)
Give the value, in units of mL/min, as a plain number.

CL/F for COc1c(N2C[C@@H](C)C[C@H](N)C2)ccc2c(=O)c(C(=O)O)cn(C3CC3)c12 ?
252

---

Assay overview: Tmax in human at 75 […], po measured on day 1
Type: ADME, organism-based
Set-up: route oral
Experimental parameters: in vivo
Reported metric: Tmax (h)
Reply with just the number (in h).

Which Tmax is reported for this compound? COc1c(N2C[C@@H](C)C[C@H](N)C2)ccc2c(=O)c(C(=O)O)cn(C3CC3)c12 [NEMONOXACIN]
1.09

---

Assay overview: Oral clearance in human at 1000 […] measured on day 1
Assay type: ADME, organism-based
Parameters: dose 1000 mg/kg
Experimental parameters: in vivo
Reported metric: CL/F

// returns reported CL/F for input COc1c(N2C[C@@H](C)C[C@H](N)C2)ccc2c(=O)c(C(=O)O)cn(C3CC3)c12 [NEMONOXACIN]
262 mL/min

---

Assay overview: Oral clearance in human at 75 mg/kg measured on day 1
Format: ADME, organism-based
Set-up: dose 75 mg/kg
Experimental parameters: in vivo
Reported metric: CL/F (mL/min)
Write the answer as a number in mL/min, unit excluded.

Request the reported CL/F associated with COc1c(N2C[C@@H](C)C[C@H](N)C2)ccc2c(=O)c(C(=O)O)cn(C3CC3)c12
303

---

Assay overview: Clearance in human assessed as compound recovered in urine at 75 mg/kg, po measured on day 1 up to 24 hrs post dose
Format: ADME, organism-based
Set-up: dose 75 mg/kg, route oral
Experimental parameters: read-out: amount in urine
Reported metric: dose excreted at 24 h
Don't forget the unit after the number, please.

Which dose excreted at 24 h value belongs to COc1c(N2C[C@@H](C)C[C@H](N)C2)ccc2c(=O)c(C(=O)O)cn(C3CC3)c12 ?
56.4%

---

Assay overview: AUC (0 to last) in human at 1000 […], po measured on day 10
Assay type: ADME, organism-based
Design: time 0 - last, dose 1000 mg/kg, route oral
Experimental parameters: plasma
Reported metric: AUC(0-t) (ng·h/mL)
Hi! Could you send only the number? It should be in ng·h/mL, unit omitted.

I'd like to know its AUC(0-t). The molecule in question is COc1c(N2C[C@@H](C)C[C@H](N)C2)ccc2c(=O)c(C(=O)O)cn(C3CC3)c12
88300

---

Assay overview: Renal clearance in human at […], po measured on day 10
Assay type: ADME, organism-based, Kidney
Experimental parameters: in vivo, read-out: CL_renal (converted)
Reported metric: CL renal (mL/min)
Numbers only here, please. The scale is mL/min.

Fill in: CL renal of COc1c(N2C[C@@H](C)C[C@H](N)C2)ccc2c(=O)c(C(=O)O)cn(C3CC3)c12 is ___
93.8
